# Assayed System: T1, CD19 (UniProt P15391 20-556, limits assumed)
# T1 sequence (looked up): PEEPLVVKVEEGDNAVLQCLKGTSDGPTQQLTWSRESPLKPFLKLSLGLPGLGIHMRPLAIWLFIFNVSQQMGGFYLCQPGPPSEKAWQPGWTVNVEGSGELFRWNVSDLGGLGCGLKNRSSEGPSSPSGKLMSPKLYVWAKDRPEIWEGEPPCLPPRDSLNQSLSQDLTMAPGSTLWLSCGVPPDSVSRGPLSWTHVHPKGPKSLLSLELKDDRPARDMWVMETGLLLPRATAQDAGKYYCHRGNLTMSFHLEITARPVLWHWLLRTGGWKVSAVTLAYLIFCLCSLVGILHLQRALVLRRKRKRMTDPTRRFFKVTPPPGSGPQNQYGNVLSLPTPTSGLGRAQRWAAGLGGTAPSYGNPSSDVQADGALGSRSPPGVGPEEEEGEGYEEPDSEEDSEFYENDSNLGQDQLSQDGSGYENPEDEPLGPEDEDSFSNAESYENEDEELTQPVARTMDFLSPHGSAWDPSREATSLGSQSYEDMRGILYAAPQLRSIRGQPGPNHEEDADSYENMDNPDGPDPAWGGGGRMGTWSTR
# Protocol Notes: cell-based or functional assay
Endpoint: IC50, in vitro cytotoxicity, SU-DHL-4 cells

Binder: hBU12-43 (antibody, V domains shown, antibody carries drug-linker 43 (MDpr-Lys(PEG2)-glucuronide-MMAE), 8 drugs per antibody) VH: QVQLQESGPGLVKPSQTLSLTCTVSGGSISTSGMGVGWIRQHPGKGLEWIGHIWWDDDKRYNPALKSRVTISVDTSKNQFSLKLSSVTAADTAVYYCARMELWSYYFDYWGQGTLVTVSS VL: EIVLTQSPATLSLSPGERATLSCSASSSVSYMHWYQQKPGQAPRLLIYDTSKLASGIPARFSGSGSGTDFTLTISSLEPEDVAVYYCFQGSVYPFTFGQGTKLEIKR
Recorded Measurement: > 1 µg/mL

Binder: hBU12-42 (antibody, V domains shown, antibody carries drug-linker 42 (MDpr-Lys(PEG4)-glucuronide-MMAE), 8 drugs per antibody) VH: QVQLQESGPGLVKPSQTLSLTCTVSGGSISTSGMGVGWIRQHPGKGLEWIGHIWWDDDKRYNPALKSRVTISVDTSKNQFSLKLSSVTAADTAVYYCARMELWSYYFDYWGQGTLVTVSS VL: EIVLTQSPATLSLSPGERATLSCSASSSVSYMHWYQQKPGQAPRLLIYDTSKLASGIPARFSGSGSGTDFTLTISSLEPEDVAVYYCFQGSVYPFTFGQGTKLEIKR
Recorded Measurement: > 1 µg/mL

Binder: hBU12-19 (antibody, V domains shown, antibody carries drug-linker 19 (MDpr-Lys(PEG4[PEG4]3)-glucuronide-MMAE, branched PEG), 8 drugs per antibody) VH: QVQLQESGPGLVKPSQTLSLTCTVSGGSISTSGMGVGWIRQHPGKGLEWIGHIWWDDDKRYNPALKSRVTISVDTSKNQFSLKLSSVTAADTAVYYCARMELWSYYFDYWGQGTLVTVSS VL: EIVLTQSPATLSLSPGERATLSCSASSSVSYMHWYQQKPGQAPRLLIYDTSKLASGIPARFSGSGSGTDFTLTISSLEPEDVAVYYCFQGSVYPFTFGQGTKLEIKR
Recorded Measurement: > 1 µg/mL

Binder: hBU12-17 (antibody, V domains shown, antibody carries drug-linker 17 (MDpr-Lys(PEG12)-glucuronide-MMAE), 8 drugs per antibody) VH: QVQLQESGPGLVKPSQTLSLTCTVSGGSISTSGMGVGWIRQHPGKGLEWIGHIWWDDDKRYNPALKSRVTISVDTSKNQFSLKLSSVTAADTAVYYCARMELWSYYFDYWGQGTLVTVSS VL: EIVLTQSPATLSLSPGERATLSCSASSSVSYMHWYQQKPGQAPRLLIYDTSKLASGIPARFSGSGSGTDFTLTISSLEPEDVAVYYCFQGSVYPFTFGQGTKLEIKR
Recorded Measurement: > 1 µg/mL

Binder: hBU12-14 (antibody, V domains shown, antibody carries drug-linker 14 (MDpr-glucuronide-MMAE, no PEG), 8 drugs per antibody) VH: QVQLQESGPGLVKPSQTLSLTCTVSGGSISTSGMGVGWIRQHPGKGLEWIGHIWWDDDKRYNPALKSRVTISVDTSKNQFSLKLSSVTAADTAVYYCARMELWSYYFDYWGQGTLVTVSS VL: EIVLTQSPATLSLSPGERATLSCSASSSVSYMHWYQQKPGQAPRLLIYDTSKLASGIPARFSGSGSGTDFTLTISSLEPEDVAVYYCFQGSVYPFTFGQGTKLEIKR
Recorded Measurement: 0.022 µg/mL

Binder: hBU12-16 (antibody, V domains shown, antibody carries drug-linker 16 (MDpr-Lys(PEG24)-glucuronide-MMAE), 8 drugs per antibody) VH: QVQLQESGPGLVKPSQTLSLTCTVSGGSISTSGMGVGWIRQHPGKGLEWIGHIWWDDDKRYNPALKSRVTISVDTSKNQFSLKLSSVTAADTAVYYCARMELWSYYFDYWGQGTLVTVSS VL: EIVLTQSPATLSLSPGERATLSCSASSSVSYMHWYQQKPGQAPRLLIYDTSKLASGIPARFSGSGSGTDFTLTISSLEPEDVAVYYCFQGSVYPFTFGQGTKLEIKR
Recorded Measurement: > 1 µg/mL

Binder: hBU12-18 (antibody, V domains shown, antibody carries drug-linker 18 (MDpr-Lys(PEG8)-glucuronide-MMAE), 8 drugs per antibody) VH: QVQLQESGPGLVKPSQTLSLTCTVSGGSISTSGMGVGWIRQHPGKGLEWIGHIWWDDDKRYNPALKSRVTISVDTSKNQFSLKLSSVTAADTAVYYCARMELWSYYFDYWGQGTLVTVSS VL: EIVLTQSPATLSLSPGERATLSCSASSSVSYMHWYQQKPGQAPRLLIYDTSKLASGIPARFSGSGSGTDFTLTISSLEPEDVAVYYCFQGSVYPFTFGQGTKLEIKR
Recorded Measurement: 0.016 µg/mL
